PROCEDURE_DETAILS: in vitro; further: test concentration or dose not given here
RECORDED_CONDITIONS: % Viability non-Wnt responsive cells
Where a SMILES comes first, the peptide text is derived from it.
METRIC_NAME: viability (%)
Just the number please, in %, no unit attached.

Ask: Endpoint output: viability of CC[C@H](C)[C@@H]1NC(=O)[C@H](CC(C)C)NC(=O)[C@H](Cc2ccc(O)cc2)NC(=O)[C@H](Cc2c[nH]c3ccccc23)NC(=O)[C@H](CCSC)NC(=O)[C@H](CCCNC(=N)N)NC(=O)[C@H](CO)NC(=O)[C@H](CCSC)NC(=O)[C@@H](N)CCCCNC(=O)CNC(=O)[C@H](Cc2c[nH]c3ccccc23)NC(=O)[C@H](Cc2ccccc2)NC(=O)[C@H](CO)NC1=O [compound 27] (HELM PEPTIDE1{K.M.S.R.M.W.Y.L.I.S.F.W.G}$PEPTIDE1,PEPTIDE1,1:R3-13:R2$$$V2.0; bridges inferred) . Value?
Reply: 96
